Task for the reader: assign each of the following compounds its reported TGI.
- Tested on: MALME-3M melanoma
- ASSAY NOTES: NCI tumour cell line growth inhibition, 48 h

Ask | Query TGI on MALME-3M melanoma for "CCCCCCCCCCCCC(=O)CCCCC(=O)O"
Reply | 43.6 µM

Ask | Query TGI on MALME-3M melanoma for "COC1=C(C)C(=O)N2[C@@H]1[C@H](c1ccccc1)OC21C=CC(=O)C=C1"
Reply | 4.32 µM

Ask | Query TGI on MALME-3M melanoma for "COc1ccccc1/C=C/C(=O)c1ccc(Nc2nc(Nc3ccc(F)cc3)nc(Nc3ccc(F)cc3)n2)cc1"
Reply | 46.5 µM

Ask | Query TGI on MALME-3M melanoma for "Cc1cc2c(cc1O)[nH]c1cc3c(cc12)C=CC(C)(C)O3"
Reply | > 25 µM

Ask | Query TGI on MALME-3M melanoma for COc1ccc(C(c2ccc(OC)cc2)N2C(=O)CCC2C(=O)O)cc1 (stereo unspecified)
Reply | > 100 µM

Ask | Query TGI on MALME-3M melanoma for "COc1ccc(Cc2nccc3cc(OC)c(OC)cc23)cc1"
Reply | > 100 µM

Ask | Query TGI on MALME-3M melanoma for "CN(c1ccc(Cl)c(Cl)c1)c1cnc2cc(N)cc(N)c2n1"
Reply | 4.28 µM

Ask | Query TGI on MALME-3M melanoma for "CCOC(=O)c1c(NNc2ccccc2)nc2ccccc2c1-c1ccccc1"
Reply | 64.3 µM

Ask | Query TGI on MALME-3M melanoma for "C1CSC2=C(S1)SC1=C(S2)SC(=C2SC3=C(SC4=C(SCCS4)S3)S2)S1"
Reply | > 100 µM

Ask | Query TGI on MALME-3M melanoma for "CCOC(=O)c1ccc(N=C2S/C(=C\C(=S)Nc3ccccc3)N(c3ccccc3)C2=Nc2ccc(C(=O)OCC)cc2)cc1"
Reply | 82.6 µM

Ask | Query TGI on MALME-3M melanoma for "O=[N+]([O-])c1cc([N+](=O)[O-])c(NN=C(c2ccc(O)cc2)c2ccc(O)cc2)cc1Cl"
Reply | 3.98 µM

Ask | Query TGI on MALME-3M melanoma for "COC(=O)C1=C(C(=O)OC)SC2(S1)C1=C(CCC1)SC(C(=O)OC)=C2C(=O)OC"
Reply | 36 µM

Ask | Query TGI on MALME-3M melanoma for "Cc1cc(C)nc(NS(=O)(=O)c2ccc(NC(=O)c3cccc4c(Nc5ccc(S(=O)(=O)N=C(N)N)cc5)c5ccccc5nc34)cc2)n1"
Reply | > 100 µM

Ask | Query TGI on MALME-3M melanoma for COC(=O)C1=CC(=O)OC1(OO)c1ccc(Br)cc1 (stereo unspecified)
Reply | > 100 µM

Ask | Query TGI on MALME-3M melanoma for "Cc1cccc(NS(=O)(=O)c2ccc3c(c2)OCCOCCOCCOCCO3)c1"
Reply | > 100 µM

Ask | Query TGI on MALME-3M melanoma for "NCCCNc1nc2ccccc2c2c(=O)c3cccc(F)c3sc12"
Reply | 3.05 µM

Ask | Query TGI on MALME-3M melanoma for "Cc1cc(=O)[nH]c(-n2[nH]c3c(c2=O)CCCC3)n1"
Reply | > 100 µM

Ask | Query TGI on MALME-3M melanoma for "CN(C)/C=N/S(=O)(=O)c1nn2c(C=O)c(-c3ccccc3)nc2s1"
Reply | 35.6 µM

Ask | Query TGI on MALME-3M melanoma for CC(c1ccccc1)N1C(=O)CSC1=S (stereo unspecified)
Reply | > 100 µM

Ask | Query TGI on MALME-3M melanoma for "Cc1ccc(O)c(-c2cc(-c3cccc(Br)c3)c(C#N)c(N)n2)c1"
Reply | 63.1 µM

Ask | Query TGI on MALME-3M melanoma for Cn1c(C2CCCc3c2c2ccccc2n3C)cc2ccccc21 (stereo unspecified)
Reply | > 318 µM

Attribution: PubChem BioAssay (NCI)
